- System under test: Dual specificity mitogen-activated protein kinase kinase 1 (Homo sapiens)
- Experiment description: Non-competitive inhibition of the dual specificity kinase MEK at the concentration 10 uM
Kind request: treat 30% as inclusive, so inhibition at 30% or higher is yes, anything lower is no.

Example entries and their recorded answers appear below.
CC(=O)Nc1ccc(S/C(N)=C(C#N)/C(C#N)=C(\N)Sc2ccc(NC(C)=O)cc2)cc1 : no
N#CC(=C(/N)Sc1ccccc1[N+](=O)[O-])/C(C#N)=C(\N)Sc1ccccc1[N+](=O)[O-] : yes
N#CC(=C(/N)Sc1cccc2ccccc12)/C(C#N)=C(\N)Sc1cccc2ccccc12 : no
N#CC(=C(/N)Sc1c(F)c(F)c(F)c(F)c1F)/C(C#N)=C(\N)Sc1c(F)c(F)c(F)c(F)c1F : no

Inquiry: I'd appreciate it if you could say whether `N#CC(=C(/N)Sc1cccc(-c2ccccc2)c1)/C(C#N)=C(\N)Sc1cccc(-c2ccccc2)c1` has inhibition at least equal to 30%.
Reply text: yes

Inquiry: I'd appreciate it if you could say whether `CNc1ccccc1S/C(N)=C(C#N)/C(C#N)=C(\N)Sc1ccccc1NC` has inhibition at least equal to 30%.
Reply text: no

Inquiry: I'd appreciate it if you could say whether `N#CC(=C(/N)Sc1cc(I)ccc1N)/C(C#N)=C(\N)Sc1cc(I)ccc1N` has inhibition at least equal to 30%.
Reply text: yes

---

- System under test: Dual specificity mitogen-activated protein kinase kinase; MEK1/2 (Homo sapiens, UniProt P36507+Q02750)
- Experiment description: Ability to antagonise AP-1 transcriptional activity
- Assay type: functional
Measurement kind: log10 IC50 (log10 of the value in µM)
Field: value | Transform: log10 | Quantity: IC50 | Unit: µM

Completed entries (count: 5):
N#CC(=C(/N)Sc1ccccc1N)/C(C#N)=C1\Nc2ccccc2S1 : 1.27
N#Cc1c(Sc2ccc3ccccc3c2)[nH]c(Sc2ccc3ccccc3c2)c1C#N : 1.46
N#CC(=C(/N)Sc1ccccc1)/C(C#N)=C(\N)Sc1ccccc1 : 1.09
N#Cc1c(N)[nH]c(Sc2ccc3ccccc3c2)c1C#N : 1.40
Cc1ccccc1S/C(N)=C(C#N)/C(C#N)=C(\N)Sc1ccccc1C : 1.12

Inquiry: Data request, read-out log10 IC50, for `N#CC(=C1/Nc2ccccc2S1)/C(C#N)=C1\Nc2ccccc2S1`
Reply text: 1.63

Inquiry: Data request, read-out log10 IC50, for `N#CC(=C(/N)Sc1cccc(Cl)c1)/C(C#N)=C(\N)Sc1cccc(Cl)c1`
Reply text: 1.26

Inquiry: Data request, read-out log10 IC50, for `COc1ccccc1S/C(N)=C(C#N)/C(C#N)=C(\N)Sc1ccccc1OC`
Reply text: 1.22

Inquiry: Data request, read-out log10 IC50, for `N#CC(=C(/N)Sc1cccs1)/C(C#N)=C(\N)Sc1cccs1`
Reply text: 0.08

Inquiry: Data request, read-out log10 IC50, for `N#CC(=C(/N)Sc1ccccc1O)/C(C#N)=C(\N)Sc1ccccc1O`
Reply text: -0.40

Inquiry: Data request, read-out log10 IC50, for `N#CC(=C(/N)Sc1ccc(Cl)cc1)/C(C#N)=C(\N)Sc1ccc(Cl)cc1`
Reply text: 1.34

---

Reported IC50 values, Dual specificity mitogen-activated protein kinase kinase 1 (Homo sapiens).
State the answer as a number, implicitly in nM.

Inquiry: Data request, read-out IC50, for `N#CC(=C1/Nc2ccccc2S1)/C(C#N)=C1\Nc2ccccc2S1`
Reply text: 700

Inquiry: Data request, read-out IC50, for `N#CC(=C(/N)Sc1ccc2ccccc2c1N)/C(C#N)=C(\N)Sc1ccc2ccccc2c1N`
Reply text: 2100

---

- System under test: Dual specificity mitogen-activated protein kinase kinase 1 (Homo sapiens)
- Experiment description: Non-competitive inhibition of the dual specificity kinase MEK at the concentration 10 uM
A collection of molecules and their measured inhibition
State the answer as a number, implicitly in %.

Completed entries (count: 6):
CS/C(N)=C(C#N)/C(C#N)=C(\N)SC : 24
N#CC(=C(/N)Sc1ccc(C(F)(F)F)cc1)/C(C#N)=C(\N)Sc1ccc(C(F)(F)F)cc1 : 33
CCc1ccccc1S/C(N)=C(C#N)/C(C#N)=C(\N)Sc1ccccc1CC : 18
N#CC(=C(/N)Sc1ccccc1CO)/C(C#N)=C(\N)Sc1ccccc1CO : 51
N#CC(=C(/N)Sc1ccccc1-c1ccccc1)/C(C#N)=C(\N)Sc1ccccc1-c1ccccc1 : 8.7
COc1ccc(S/C(N)=C(C#N)/C(C#N)=C(\N)Sc2ccc(OC)c(OC)c2)cc1OC : 0

Shifting focus to the molecule that follows.
Inquiry: Entry `COc1ccc(OC)c(S/C(N)=C(C#N)/C(C#N)=C(\N)Sc2cc(OC)ccc2OC)c1` , system Dual specificity mitogen-activated protein kinase kinase 1 (Homo sapiens): what inhibition was measured?
Reply text: 18

---

- System under test: Dual specificity mitogen-activated protein kinase kinase 1 (Homo sapiens, UniProt Q02750)
- Sequence (Q02750 whole entry): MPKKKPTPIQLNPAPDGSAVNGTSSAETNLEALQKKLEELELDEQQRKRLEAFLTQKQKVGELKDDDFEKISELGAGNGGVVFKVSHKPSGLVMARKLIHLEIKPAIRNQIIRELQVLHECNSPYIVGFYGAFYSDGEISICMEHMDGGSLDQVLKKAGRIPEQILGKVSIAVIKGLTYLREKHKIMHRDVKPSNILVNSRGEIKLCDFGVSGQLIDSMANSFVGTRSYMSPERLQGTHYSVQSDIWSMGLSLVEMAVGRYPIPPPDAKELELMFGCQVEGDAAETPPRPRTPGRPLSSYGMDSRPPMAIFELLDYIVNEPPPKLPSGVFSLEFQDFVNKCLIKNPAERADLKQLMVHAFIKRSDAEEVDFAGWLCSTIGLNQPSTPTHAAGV
Measurement kind: pIC50
Give only the number. pIC50 is defined as minus log10 of concentration in molar units.

N#CC(=C(/N)Sc1cccc(Cl)c1)/C(C#N)=C(\N)Sc1cccc(Cl)c1 : 5.72

Inquiry: Data request, read-out pIC50, for `N#Cc1c(Sc2ccc3ccccc3c2)[nH]c(Sc2ccc3ccccc3c2)c1C#N`
Reply text: 5.68

Inquiry: Data request, read-out pIC50, for `N#Cc1c(N)[nH]c(Sc2ccccc2N)c1C#N`
Reply text: 4.87

---

- System under test: Dual specificity mitogen-activated protein kinase kinase 1 (Homo sapiens)
- Experiment description: Non-competitive inhibition of the dual specificity kinase MEK at the concentration 10 uM
Measurement kind: inhibition
Could you give the number and then its unit, please?

Completed entries (count: 3):
N#CC(=C(/N)Sc1cccc(C(F)(F)F)c1)/C(C#N)=C(\N)Sc1cccc(C(F)(F)F)c1 : 32%
N#CC(=C(/N)SCCO)/C(C#N)=C(\N)SCCO : 0%
N#CC(=C(/N)Sc1ccc(-c2ccccc2)cc1)/C(C#N)=C(\N)Sc1ccc(-c2ccccc2)cc1 : 34%

Shifting focus to the molecule that follows.
Inquiry: Data request, read-out inhibition, for `N#CC(=C(/N)Sc1ccc2ccccc2c1)/C(C#N)=C(\N)Sc1ccc2ccccc2c1`
Reply text: 54%
